assay: Solubility in cosmetic oils; format: physicochemical; settings: per cent by weight
Collected Solubility in Miglyol -812 values appear next to each entry.

Reference set (4 entries):
[[record]]
compound = "CCCCOC(=O)/C(=C/c1ccc(OC)cc1)C(=O)c1ccccc1 [Example 4]"
experimental_readout = "Solubility in Miglyol -812"
result = ">20%"

[[record]]
compound = "COc1ccc(/C=C(/C(=O)OCCC(C)C)C(=O)c2ccccc2)cc1 [Example 5]"
experimental_readout = "Solubility in Miglyol -812"
result = ">20%"

[[record]]
compound = "CCCOC(=O)/C(=C/c1ccc(OC)cc1)C(=O)c1ccccc1 [Example 2]"
experimental_readout = "Solubility in Miglyol -812"
result = ">10%"

[[record]]
compound = "CCOC(=O)/C(=C/c1ccc(OC)cc1)C(=O)c1ccccc1 [Example A3]"
experimental_readout = "Solubility in Miglyol -812"
result = ">20%"


q: // lookup Solubility in Miglyol -812 for COc1ccc(/C=C(/C(C)=O)C(=O)c2ccccc2)cc1 [Example A2]
a: <10%

q: Same read-out for COc1ccc(/C=C(/C(=O)OC(C)C)C(=O)c2ccccc2)cc1 [Example 1] ?
a: >10%

q: Check COc1ccc(/C=C(/C(=O)OCC(C)C)C(=O)c2ccccc2)cc1 [Example 3] too.
a: >20%

----------
Assay: UV absorption properties (extinction)
Assay type: physicochemical
Parameters: unit not given here
Conditions: at 316 nm
From the text: EXAMPLES FOR THE PREPARATION AND THE ABSORPTION PROPERTIES
experimental-readout: Extinction

[[record]]
smiles_data = "CCCOC(=O)/C(=C/c1ccc(OC)cc1)C(=O)c1ccccc1"
result = 660

[[record]]
smiles_data = "COc1ccc(/C=C(/C(=O)OCC(C)C)C(=O)c2ccccc2)cc1"
result = 640

[[record]]
smiles_data = "COc1ccc(/C=C(/C(=O)OCCC(C)C)C(=O)c2ccccc2)cc1"
result = 630

[[record]]
smiles_data = "CCOC(=O)/C(=C/c1ccc(OC)cc1)C(=O)c1ccc(C)cc1"
result = 660

[[record]]
smiles_data = "COc1ccc(/C=C(/C(=O)OC(C)C)C(=O)c2ccccc2)cc1"
result = 640

[[record]]
smiles_data = "CCCCOC(=O)/C(=C/c1ccc(OC)cc1)C(=O)c1ccccc1"
result = 660

[[record]]
smiles_data = "CCOC(=O)/C(=C/c1ccc(OC)cc1)C(=O)C1CCCCC1"
result = 700


----------
assay: Solubility in cosmetic oils; format: physicochemical; conditions: per cent by weight
experimental-readout: Solubility in Isopropyl myristate

[[record]]
smiles_data = "CCCOC(=O)/C(=C/c1ccc(OC)cc1)C(=O)c1ccccc1"
experimental_readout = "Solubility in Isopropyl myristate"
result = ">10%"


q: Fill blank: measured Solubility in Isopropyl myristate of the compound `COc1ccc(/C=C(/C(=O)OC(C)C)C(=O)c2ccccc2)cc1` is ____.
a: >10%

q: Again, but for `COc1ccc(/C=C(/C(=O)OCCC(C)C)C(=O)c2ccccc2)cc1`
a: >20%

q: Input `CCOC(=O)/C(=C/c1ccc(OC)cc1)C(=O)c1ccccc1`
a: >20%

q: Try this compound next: `COc1ccc(/C=C(/C(C)=O)C(=O)c2ccccc2)cc1`
a: <10%

q: Query `CCCCOC(=O)/C(=C/c1ccc(OC)cc1)C(=O)c1ccccc1` next
a: >20%

q: Check `COc1ccc(/C=C(/C(=O)OCC(C)C)C(=O)c2ccccc2)cc1` too.
a: >20%

----------
Catalogue of Solubility in Witconol-TN readings, one per entry.
experiment: Solubility in cosmetic oils; format: physicochemical; conditions: per cent by weight

q: // returns reported Solubility in Witconol-TN for input `COc1ccc(/C=C(/C(=O)OC(C)C)C(=O)c2ccccc2)cc1`
a: >10%

q: Moving on to `CCOC(=O)/C(=C/c1ccc(OC)cc1)C(=O)c1ccccc1`
a: >20%

q: Field entry: `CCCOC(=O)/C(=C/c1ccc(OC)cc1)C(=O)c1ccccc1`
a: >10%

q: Consider next the compound `COc1ccc(/C=C(/C(=O)OCCC(C)C)C(=O)c2ccccc2)cc1` in the same way.
a: >20%

q: Here is the next compound: `COc1ccc(/C=C(/C(=O)OCC(C)C)C(=O)c2ccccc2)cc1`
a: >20%

q: Another compound to check: `CCCCOC(=O)/C(=C/c1ccc(OC)cc1)C(=O)c1ccccc1`
a: >20%

q: Another compound: `COc1ccc(/C=C(/C(C)=O)C(=O)c2ccccc2)cc1`
a: <10%
